Tested on: GP2D cells
Assay: GP2D proliferation assay (120 h) (colorectal cancer, G12D)
Format: cell-based
quantity_kind: IC50 (nM)

// below: answered compounds
> print(dat)
                                   compound  quantity.kind  obs.value
1  C[C@H](Oc1cc(N2C[C@@H](N(C)C)[C@@H](F)C2)nc(-c2noc3c2CCC[C@@]32CCCc3sc(N)c(C#N)c32)n1)[C@@H]1CCCN1C [II-11]           IC50         78
2  C[C@H](Oc1cc(N2C[C@H](C)N(C)[C@@H](C)C2)nc(-c2onc3c2CCC[C@@]32CCCc3sc(N)c(C#N)c32)n1)[C@@H]1CCCN1C [I-43]           IC50        143

P: C[C@H](Oc1cc(-n2cc3c(n2)CCN(C)C3)nc(-c2noc3c2CCC[C@@]32CCCc3sc(N)c(C#N)c32)n1)[C@@H]1CCCN1C [II-141]
Q: C[C@H](Oc1cc(N2C[C@@H](N(C)C)[C@@H](O)C2)nc(-c2noc3c2CCC[C@@]32CCCc3sc(N)c(C#N)c32)n1)[C@@H]1CCCN1C [II-10]
R: C[C@H](Oc1cc(-n2cc3c(n2)CNC3)nc(-c2noc3c2CCC[C@@]32CCCc3sc(N)c(C#N)c32)n1)[C@@H]1C[C@@H](F)CN1C [II-154]
S: C[C@H](Oc1cc(N2CCNC3(CC3)C2)nc(-c2onc3c2CCC[C@@]32CCCc3sc(N)c(C#N)c32)n1)[C@@H]1C[C@@H](F)CN1C [I-45]
input: Rank entries according to their IC50, from the largest number down. List the labels, following the order given in the request.
output: R, Q, P, S
(R: 39 nM, Q: 11 nM, P: 4 nM, S: 2 nM)
